# ASSAY REMARKS: Selectivity index, ratio of IC50 for rat L6 cells to IC50 for Leishmania donovani MHOM/SD/62/1S-CL2D
# Format: toxicity, cell-based
# CONDITION SET: read-out: Ratio IC50
// values below are reported selectivity ratio
METRIC NAME: selectivity ratio

record_smiles=c1ccc2[nH]c(-c3ccc(-c4cc5cc(C6=NCCN6)ccc5o4)cc3)nc2c1 metric_name="selectivity ratio" result="< 0.6"
record_smiles=COc1ccc(C(=N)NC(C)C)cc1-c1cc2ccc(C(=N)NC(C)C)cc2o1 metric_name="selectivity ratio" result="> 3"
record_smiles=N=C(N)c1ccc(O)c(-c2cc3cc(C(=N)N)ccc3o2)c1 metric_name="selectivity ratio" result="> 11"
record_smiles=CC(C)NC(=N)c1ccc(-c2cc3ccc(C(=N)NC(C)C)cc3o2)cc1 metric_name="selectivity ratio" result="> 17"
record_smiles=c1cc(-c2cc3ccc(C4=NCCN4)cc3o2)ccc1C1=NCCN1 metric_name="selectivity ratio" result="< 0.1"
record_smiles=COc1ccc(C(=N)NC(C)C)cc1-c1cc2cc(C(=N)NC(C)C)ccc2o1 metric_name="selectivity ratio" result="> 7"
record_smiles=CC(C)NC(=N)c1ccc(-c2cc3cc(C(=N)NC(C)C)ccc3o2)cc1 metric_name="selectivity ratio" result="> 125"
record_smiles=CC(C)NC(=N)c1ccc(O)c(-c2cc3cc(C(=N)NC(C)C)ccc3o2)c1 metric_name="selectivity ratio" result="> 5"
record_smiles=Oc1cc(C2=NCCN2)cc2cc(-c3ccc(C4=NCCN4)cc3)oc12 metric_name="selectivity ratio" result="> 27"
record_smiles=COc1cc(C2=NCCN2)ccc1-c1cc2ccc(C3=NCCN3)cc2o1 metric_name="selectivity ratio" result="< 0.04"
record_smiles=COc1cc(C(=N)NC(C)C)cc2cc(-c3ccc(C(=N)NC(C)C)cc3)oc12 metric_name="selectivity ratio" result="> 12"
record_smiles=CC(C)NC(=N)c1cccc(-c2cc3cc(C(=N)NC(C)C)ccc3o2)c1 metric_name="selectivity ratio" result="> 15"
